system: osteoclast differentiation; test: Inhibitory effects on osteoclast differentiation (co-culture of bone marrow cells with osteoblast, TRAP staining); type: cell-based, mice; conditions: Mus musculus, Osteoclast, 168 h; 1 m; co-culture of bone marrow cells and osteoblast, 7 days, TRAP-positive osteoclasts versus controls; read-out: % inhibitory activity on osteoclastogenesis
Give measured inhibition at 1 µM for each item. Keep answers brief.
The reply should contain only the number, in %.

Qu. Which inhibition at 1 µM value is on record for `CCc1sc(N(C)Cc2ccccc2)nc1-c1ccc(OCCCCCOc2ccc(C(=N)NO)cc2)cc1` ?
Ans. 76.6

Qu. What would you report for `N=C(NO)c1ccc(OCCCCCOc2ccc(-c3csc(N4CCOCC4)n3)cc2)cc1` ?
Ans. 61.9

Qu. What would you report for `CCS(=O)(=O)N(C)c1nc(-c2ccc(OCCCCCOc3ccc(C(=N)NO)cc3)cc2)c(C(C)C)s1` ?
Ans. 54.1

Qu. What would you report for CCCNc1nc(-c2ccc(OC(C)CCCOc3ccc(C(=N)NO)cc3)cc2)c(C)s1 (stereo not shown) ?
Ans. 15.9

---

tested on: osteoclast differentiation; test: Inhibitory effects on osteoclast differentiation (co-culture of bone marrow cells with osteoblast, TRAP staining); assay type: cell-based, mice; conditions: Mus musculus, Osteoclast, 168 h; 1 m; co-culture of bone marrow cells and osteoblast, 7 days, TRAP-positive osteoclasts versus controls; read-out: % inhibitory activity on osteoclastogenesis
Record true whenever inhibition at 1 µM is at 50% or higher; record false when lower.

Qu. Determine whether this compound has inhibition at 1 µM no lower than 50%: `CCc1sc(NC(=O)c2ccncc2)nc1-c1ccc(OCCCCCOc2ccc(C(=N)NO)cc2)cc1`
Ans. true

Qu. What would you report for `CNc1nc(-c2ccc(OCCCCCOc3ccc(C(=N)NO)cc3)cc2)c(Cc2ccccc2)s1` ?
Ans. true

Qu. What would you report for `CCCCc1sc(C(C)C)nc1-c1ccc(OCc2ccc(COc3ccc(C(=N)NO)cc3)cc2)cc1` ?
Ans. true

Qu. What would you report for `CC(C)c1sc(CN2CCOCC2)nc1-c1ccc(OCCCCCOc2ccc(C(=N)NO)cc2)cc1` ?
Ans. false

Qu. What would you report for `CCS(=O)(=O)Nc1nc(-c2ccc(OCCCCCOc3ccc(C(=N)NO)cc3)cc2)cs1` ?
Ans. false

Qu. What would you report for `CCN(CC)c1nc(-c2ccc(OCCCCCOc3ccc(C(=N)NO)cc3)cc2)c(C2CCCC2)s1` ?
Ans. false

Qu. What would you report for `Cc1nc(-c2ccc(OCCCCCOc3ccc(C(=N)NO)c(F)c3)cc2)c(C(C)C)s1` ?
Ans. true

---

Give measured melting point for each item. Keep answers brief.

Qu. Which melting point value is on record for `CCCCCc1nc(-c2ccc(OCCCCCOc3ccc(C(=N)NO)cc3)cc2)c(CC)s1` ?
Ans. 79 to 88 °C

Qu. What would you report for `CCCCCc1nc(-c2ccc(OCCCCCOc3ccc(C(=N)NO)cc3)cc2)c(C)s1` ?
Ans. 81 to 89 °C

Qu. What would you report for `CCc1nc(-c2ccc(OCCCCCOc3ccc(C(=N)NO)cc3)cc2)c(C)s1` ?
Ans. 127 to 131 °C

Qu. What would you report for `Cc1sc(-c2cccnc2)nc1-c1ccc(OCCCCCOc2ccc(C(=N)NO)cc2)cc1` ?
Ans. 138 to 150 °C

Qu. What would you report for `Cc1nc(-c2ccc(OCCCCCOc3ccc(C(=N)NO)cc3)cc2)c(C)s1` ?
Ans. 128 to 133 °C

Qu. What would you report for `CCc1sc(-c2ccccc2)nc1-c1ccc(OCCCCCOc2ccc(C(=N)NO)cc2)cc1` ?
Ans. 83 to 86 °C

Qu. What would you report for `CCc1nc(-c2ccc(OCCCCCOc3ccc(C(=N)NO)cc3)cc2)c(CC)s1` ?
Ans. 121 to 127 °C

Qu. What would you report for `N=C(NO)c1ccc(OCCCCCOc2ccc(-c3nc(-c4cccnc4)sc3Cc3ccccc3)cc2)cc1` ?
Ans. 134 to 143 °C

Qu. What would you report for `N=C(NO)c1ccc(OCCCCCOc2ccc(-c3csc(-c4ccccc4)n3)cc2)cc1` ?
Ans. 133 to 141 °C

Qu. What would you report for `N=C(NO)c1ccc(OCCCCCOc2ccc(-c3csc(-c4cccnc4)n3)cc2)cc1` ?
Ans. 149 to 154 °C

Qu. What would you report for `CCCCc1sc(C)nc1-c1ccc(OCCCCCOc2ccc(C(=N)NO)cc2)cc1` ?
Ans. 138 to 140 °C

Qu. What would you report for `CCCCc1sc(-c2cccnc2)nc1-c1ccc(OCCCCCOc2ccc(C(=N)NO)cc2)cc1` ?
Ans. 107 to 118 °C

Qu. What would you report for `CCc1sc(-c2cccnc2)nc1-c1ccc(OCCCCCOc2ccc(C(=N)NO)cc2)cc1` ?
Ans. 146 to 153 °C

Qu. What would you report for `CC(C)c1nc(-c2ccc(OCCCCCOc3ccc(C(=N)NO)cc3)cc2)c(Cc2ccccc2)s1` ?
Ans. 108 to 120 °C

Qu. What would you report for `CCCCc1sc(CC)nc1-c1ccc(OCCCCCOc2ccc(C(=N)NO)cc2)cc1` ?
Ans. 80 to 84 °C

Qu. What would you report for `Cc1sc(-c2ccccc2)nc1-c1ccc(OCCCCCOc2ccc(C(=N)NO)cc2)cc1` ?
Ans. 124 to 130 °C

Qu. What would you report for `CC(C)c1nc(-c2ccc(OCCCCCOc3ccc(C(=N)NO)cc3)cc2)cs1` ?
Ans. 95 to 129 °C

Qu. What would you report for `Cc1nc(-c2ccc(OCCCCCOc3ccc(C(=N)NO)cc3)cc2)cs1` ?
Ans. 139 to 140 °C

---

system: cells; test: Cytotoxicity test (MTT); type: cell-based; conditions: ST2 cells, 10^−6M, 72 hrs, compared with the control group
Give measured Survival rates of the cells for each item. Keep answers brief.
The reply should contain only the number, in %.

Qu. Which Survival rates of the cells value is on record for Cc1nc(-c2ccc(OCCCN3CCN(CCCOc4ccc(C(=N)NO)cc4)CC3)cc2)c(C(C)C)s1 [Example 181] ?
Ans. 36.7

Qu. What would you report for CC(C)c1sc(N(C)Cc2cccnc2)nc1-c1ccc(OCCCCCOc2ccc(C(=N)NO)cc2)cc1 [Example 141] ?
Ans. 27.9

Qu. What would you report for CNc1nc(-c2ccc(OCCCCCOc3ccc(C(=N)NO)cc3)cc2)c(CC2CCCC2)s1 [Example 109] ?
Ans. 39.0

Qu. What would you report for N=C(NO)c1ccc(OCCCCCOc2ccc(-c3nc(NC(=O)c4ccncc4)sc3CC3CCCC3)cc2)cc1 [Example 112] ?
Ans. 63.6

Qu. What would you report for CCCCc1sc(N(CCC)CCC)nc1-c1ccc(OCCCCCOc2ccc(C(=N)NO)cc2)cc1 [Example 146] ?
Ans. 38.2

Qu. What would you report for N=C(NO)c1ccc(OCCCCCOc2ccc(-c3nc(-c4ccccc4)sc3CC3CCCC3)cc2)cc1 [Example 48] ?
Ans. 51.2

Qu. What would you report for N=C(NO)c1ccc(OCCCCCOc2ccc(-c3nc(C4CCCCC4)sc3CC3CCCC3)cc2)cc1 [Example 50] ?
Ans. 61.0

Qu. What would you report for CCc1sc(N(CC)Cc2cccnc2)nc1-c1ccc(OCCCCCOc2ccc(C(=N)NO)cc2)cc1 [Example 136] ?
Ans. 29.9

Qu. What would you report for CCc1sc(N2CCCCC2)nc1-c1ccc(OCCCCCOc2ccc(C(=N)NO)cc2)cc1 [Example 166] ?
Ans. 52.4

Qu. What would you report for CCCCCc1nc(-c2ccc(OCCCCCOc3ccc(C(=N)NO)cc3)cc2)c(C)s1 [Example 15] ?
Ans. 42.3

Qu. What would you report for CCN(CCO)c1nc(-c2ccc(OCCCCCOc3ccc(C(=N)NO)cc3)cc2)c(C)s1 [Example 121] ?
Ans. 41.4

Qu. What would you report for Cc1sc(N(C)Cc2ccccc2)nc1-c1ccc(OCCCCCOc2ccc(C(=N)NO)cc2)cc1 [Example 125] ?
Ans. 47.9

Qu. What would you report for CCCCc1sc(C(C)(C)C)nc1-c1ccc(OCCCCCOc2ccc(C(=N)NO)cc2)cc1 [Example 37] ?
Ans. 40.5

Qu. What would you report for Cc1nc(-c2ccc(OCCCCCOc3ccc(C(=N)NO)cc3)cc2)c(CC2CCCC2)s1 [Example 45] ?
Ans. 37.0

Qu. What would you report for N=C(NO)c1ccc(OCCCCCOc2ccc(-c3nc(-c4cccnc4)sc3CC3CCCC3)cc2)cc1 [Example 49] ?
Ans. 39.0

Qu. What would you report for CCCCc1sc(N)nc1-c1ccc(OCCCCCOc2ccc(C(=N)NO)cc2)cc1 [Example 63] ?
Ans. 29.3

---

tested on: osteoclast differentiation; assay: Inhibitory effects on osteoclast differentiation (co-culture of bone marrow cells with osteoblast, TRAP staining); assay type: cell-based, mice; conditions: Mus musculus, Osteoclast, 168 h; 1 m; co-culture of bone marrow cells and osteoblast, 7 days, TRAP-positive osteoclasts versus controls; read-out: % inhibitory activity on osteoclastogenesis
observed-property: inhibition at 1 µM (%)
The reply should contain only the number, in %.

Qu. Which inhibition at 1 µM value is on record for `CCCNc1nc(-c2ccc(OCCCCCOc3ccc(C(=N)NO)cc3)cc2)c(CC2CCCC2)s1` ?
Ans. 99.5

Qu. What would you report for `COCCNc1nc(-c2ccc(OCCCCCOc3ccc(C(=N)NO)cc3)cc2)c(C)s1` ?
Ans. 77.2

Qu. What would you report for `CCc1sc(N(CC)Cc2ccccc2)nc1-c1ccc(OCCCCCOc2ccc(C(=N)NO)cc2)cc1` ?
Ans. 48.6

Qu. What would you report for `Cc1nc(-c2ccc(OCCCCCOc3ccc(C(=N)NO)c(NC4CCCCC4)c3)cc2)c(C(C)C)s1` ?
Ans. 27.3

Qu. What would you report for `Cc1nc(-c2ccc(OCCCCOc3ccc(C(=N)NO)cc3)cc2)c(C(C)C)s1` ?
Ans. 19.8

Qu. What would you report for `CN1CCN(c2nc(-c3ccc(OCCCCCOc4ccc(C(=N)NO)cc4)cc3)c(CC3CCCC3)s2)CC1` ?
Ans. 93.9

Qu. What would you report for `CCc1sc(NS(=O)(=O)CC)nc1-c1ccc(OCCCCCOc2ccc(C(=N)NO)cc2)cc1` ?
Ans. 47.1

Qu. What would you report for `CC(C)c1sc(N(C)Cc2cccnc2)nc1-c1ccc(OCCCCCOc2ccc(C(=N)NO)cc2)cc1` ?
Ans. 74.8

Qu. What would you report for `Cc1nc(-c2ccc(OCCCOc3ccc(C(=N)NO)cc3)cc2)c(C(C)C)s1` ?
Ans. 54.1

Qu. What would you report for `CC(C)Cc1sc(N(C)CCN2CCOCC2)nc1-c1ccc(OCCCCCOc2ccc(C(=N)NO)cc2)cc1` ?
Ans. 9.3

Qu. What would you report for `N=C(NO)c1ccc(OCCCCCOc2ccc(-c3nc(N)sc3CC3CCCC3)cc2)cc1` ?
Ans. 81.4

Qu. What would you report for `Cc1nc(-c2ccc(OCCCCCOc3ccc(C(=N)NO)cc3)cc2)c(CO)s1` ?
Ans. 40.2

Qu. What would you report for `Cc1nc(-c2ccc(OCCCCCN(C)c3ccc(C(=N)NO)cc3)cc2)c(C(C)C)s1` ?
Ans. 65.6

Qu. What would you report for `CCCCc1sc(NC)nc1-c1ccc(OCCCCCOc2ccc(C(=N)NO)cc2)cc1` ?
Ans. 61.1

Qu. What would you report for `N=C(NO)c1ccc(OCCCCCOc2ccc(-c3nc(N4CCOCC4)sc3C3CCCC3)cc2)cc1` ?
Ans. 87.8

Qu. What would you report for `CCCNc1nc(-c2ccc(OCCCCCOc3ccc(C(=N)NO)cc3)cc2)c(C2CCCC2)s1` ?
Ans. 86.7

Value source: patent US8178688B2
